tested-target: SpMyo1
run-description: SPOT peptide array binding signal intensity (averaged, normalized) (arbitrary units (background-subtracted, floor 0; scale differs between SH3 domains)); higher = stronger binding of the SH3 domain to the peptide
value-type: SPOT peptide array binding signal intensity
Kindly provide the number alone.

>>> meas_value("TKIRRRPQQPLTDFT")
8

Briefly, SPOT peptide array binding signal intensity measured for "LKQRFFLMFPKSIIW" : 3.5

Briefly, SPOT peptide array binding signal intensity measured for "DAPASKPSVPPRNYF" : 2

Briefly, SPOT peptide array binding signal intensity measured for "QLMKNLPKIPLLNDI" : 106
